test system: Yap1 mRNA; experiment: Antisense inhibition of human Yap1 in A-431 cells by cEt gapmers, single dose (Example 3, RTS36584); assay type: cell-based; details: Table 35; Yap1 mRNA as percent of untreated control; 3-10-3 cEt gapmers targeting SEQ ID NO: 1 and 2; single dose
Strand notation (5' to 3'): a small letter for the sugar, then the base; units joined by * are phosphorothioate-linked, units joined directly phosphodiester-linked; [ ] holds rarer units or linkages, { } end groups; capitals alone tell only the bases. k = constrained ethyl (cEt); [5mC] = 5-methylcytosine; d = 2'-deoxy (DNA)
quantity-measured: YAP1 (% UTC)
Numbers only, in % UTC.

Example entries begin here.
1075285 (antisense kT*kA*kT*dA*d[5mC]*dA*dT*dA*dG*dT*d[5mC]*dA*dA*kT*kT*k[5mC]) [compound 1075285]
60
1075701 (kA*kA*kT*dT*dA*d[5mC]*dT*dA*dG*dA*dG*dG*d[5mC]*kT*kT*k[5mC]; antisense) [compound 1075701]
3
1074709 (antisense kT*k[5mC]*kT*dA*dG*dA*dA*d[5mC]*dA*dG*d[5mC]*dT*dG*k[5mC]*k[5mC]*kT) [compound 1074709]
71
1075125 (k[5mC]*kT*kT*dA*dA*dG*dG*dT*dA*d[5mC]*dA*dA*dG*kG*k[5mC]*kA; antisense) [compound 1075125]
84
1076309 (kG*kA*kT*dA*dA*d[5mC]*dT*dT*dT*d[5mC]*d[5mC]*dA*d[5mC]*kA*kA*kT; antisense) [compound 1076309]
9

With those in mind, consider the next substance.
Note to self: YAP1 (% UTC) recorded for 1074517 (kA*kA*kT*dG*d[5mC]*dA*dT*dA*d[5mC]*dA*dA*dA*dG*k[5mC]*kG*k[5mC]; antisense) [compound 1074517] was 55
